// provenance: patent US20030059862A1

- assayed-system: T1, biotinylated APRIL (Homo sapiens (Human), UniProt O75888 105-250, biotinylated using NHS-biotin at a molar ratio of 20:1 biotin:APRIL)
- T1 construct: also called bio-APRIL
- T1 sequence: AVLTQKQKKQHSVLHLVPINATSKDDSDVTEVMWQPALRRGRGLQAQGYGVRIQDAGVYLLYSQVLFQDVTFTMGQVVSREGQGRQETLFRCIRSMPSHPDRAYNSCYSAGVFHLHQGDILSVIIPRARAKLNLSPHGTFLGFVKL
- method-summary: scFv inhibition of bio-APRIL (50 ng/ml) binding to coated TACI fusion protein, streptavidin-DELFIA; partial inhibition
measured-metric: pIC50
// pIC50: -log10(molar conc.)

Prompt: Could you share which pIC50 value was measured for A010D09 (scFv) scFv: QVQLVQSGAEVKKLGSSVKVSCKASGGTFSSYAISWVRQAPGQGLEWMGGIIPIFGTANYAQKFQGRVTITADESTSTAYMELSSLRSEDTAVYYCARDLSRLGMDVWGQGTTVTVSSGGGGSGGGGSGGGGSDIQMTQSPSTLSASIGDRVTITCRASEGIYHWLAWYQQKPGKAPKLLIYKASSLASGAPSRFSGSGSGTDFTLTISSLQPDDFATYYCQQYSNYPLTFGGGTKLEIKR ?
Completion: 7.92
